System: LOC_OS03G12390-cb001;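 also: purified Escherichia coli-expressed rice kinase domain construct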
assayMethodText: thermal shift delta Tm vs DMSO control; higher = stronger stabilization (binding)
setupConditions: 12.5 µM; protein concentration 2 µM
Quick rule for you: thermal shift delta Tm at 0.1 °C or higher means t, lower means f.

[in] Determine whether measured thermal shift delta Tm meets or exceeds 0.1 °C for CCNC(=O)Nc1ccc(-c2nc3c(c(N4CCOC[C@@H]4C)n2)CCN(C2COC2)C3)cc1
[out] f

[in] Determine whether measured thermal shift delta Tm meets or exceeds 0.1 °C for CNC(=O)CN1CCC(Oc2cc3c(Nc4cccc(Cl)c4F)ncnc3cc2OC)CC1
[out] t

[in] Determine whether measured thermal shift delta Tm meets or exceeds 0.1 °C for CC(C)(CCCCCC(O)CCCCCC(C)(C)C(=O)O)C(=O)O
[out] f

[in] Determine whether measured thermal shift delta Tm meets or exceeds 0.1 °C for O=c1sn(-c2cccc3ccccc23)c(=O)n1Cc1ccccc1
[out] f

[in] Determine whether measured thermal shift delta Tm meets or exceeds 0.1 °C for C=CC(=O)Nc1ccc2ncnc(Nc3cccc(Br)c3)c2c1
[out] f

[in] Determine whether measured thermal shift delta Tm meets or exceeds 0.1 °C for CN1CCCN(C(=O)c2cccc(-c3ccc(/C=C4/C(=O)Nc5ccc(Cl)cc54)o3)c2)CC1
[out] t

[in] Determine whether measured thermal shift delta Tm meets or exceeds 0.1 °C for CC(=O)c1c(C)c2cnc(Nc3ccc(N4CCNCC4)cn3)nc2n(C2CCCC2)c1=O
[out] t

[in] Determine whether measured thermal shift delta Tm meets or exceeds 0.1 °C for Cn1cnc2c(F)c(Nc3ccc(Br)cc3Cl)c(C(=O)NOCCO)cc21
[out] t

[in] Determine whether measured thermal shift delta Tm meets or exceeds 0.1 °C for Cc1c(C(=O)Nc2ccc(Oc3ccnc4[nH]cc(-c5ccccc5)c34)c(F)c2)c(=O)n(-c2ccc(F)cc2)n1C
[out] t

[in] Determine whether measured thermal shift delta Tm meets or exceeds 0.1 °C for O=C(NC(NC(=S)Nc1ccc(F)c([N+](=O)[O-])c1)C(Cl)(Cl)Cl)C(c1ccccc1)c1ccccc1 (stereo not given)
[out] t

[in] Determine whether measured thermal shift delta Tm meets or exceeds 0.1 °C for COc1cc2ncnc(Nc3ccc(F)c(Cl)c3)c2cc1OCCCN1CCOCC1 [Gefitinib (ZD1839)]
[out] t

[in] Determine whether measured thermal shift delta Tm meets or exceeds 0.1 °C for O=C1NC(=O)/C(=C/c2ccc3c(c2)OC(F)(F)O3)S1
[out] t

[in] Determine whether measured thermal shift delta Tm meets or exceeds 0.1 °C for Cc1cc(C(=O)NOCCO)c(Nc2ccc(I)cc2F)n(C)c1=O
[out] f

[in] Determine whether measured thermal shift delta Tm meets or exceeds 0.1 °C for Cc1[nH]c(/C=C2\C(=O)Nc3ccc(S(=O)(=O)Cc4c(Cl)cccc4Cl)cc32)c(C)c1C(=O)N1CCC[C@@H]1CN1CCCC1
[out] t

[in] Determine whether measured thermal shift delta Tm meets or exceeds 0.1 °C for CO[C@H]1CC[C@H](N2C(=O)CNc3ncc(-c4ccc(C(C)(C)O)nc4)nc32)CC1
[out] f

[in] Determine whether measured thermal shift delta Tm meets or exceeds 0.1 °C for NC(=O)c1cnc2[nH]ccc2c1N[C@@H]1[C@@H]2CC3C[C@H]1C[C@@](O)(C3)C2
[out] t

[in] Determine whether measured thermal shift delta Tm meets or exceeds 0.1 °C for COc1ccc(C(=O)Nc2sc3c(c2C(N)=O)CCCC3)cc1OC
[out] t

[in] Determine whether measured thermal shift delta Tm meets or exceeds 0.1 °C for C=CCc1ccc(O)c(-c2ccc(O)c(CC=C)c2)c1
[out] f

[in] Determine whether measured thermal shift delta Tm meets or exceeds 0.1 °C for O=C(Nc1ccccc1C(=O)NC1CCCCNC1=O)c1cc2ccccc2s1 (stereo not given)
[out] f

[in] Determine whether measured thermal shift delta Tm meets or exceeds 0.1 °C for CCS(=O)(=O)Nc1ccc2c(c1)/C(=C(/Nc1ccc(CN3CCCCC3)cc1)c1ccccc1)C(=O)N2
[out] t

[in] Determine whether measured thermal shift delta Tm meets or exceeds 0.1 °C for CO[C@H]1C[C@@H]2CC[C@@H](C)[C@@](O)(O2)C(=O)C(=O)N2CCCC[C@H]2C(=O)O[C@H]([C@H](C)C[C@@H]2CC[C@@H](OP(C)(C)=O)[C@H](OC)C2)CC(=O)[C@H](C)/C=C(\C)[C@@H](O)[C@@H](OC)C(=O)[C@H](C)C[C@H](C)/C=C/C=C/C=C/1C
[out] f

[in] Determine whether measured thermal shift delta Tm meets or exceeds 0.1 °C for CNS(=O)(=O)C[C@H]1CC[C@H](N(C)c2[nH]cnc3nccc2-3)CC1
[out] t

[in] Determine whether measured thermal shift delta Tm meets or exceeds 0.1 °C for CC1=C(C(=O)Nc2cc3cn[nH]c3cc2F)C(c2ccc(C(F)(F)F)cc2)CC(=O)N1 (stereo not given)
[out] t

[in] Determine whether measured thermal shift delta Tm meets or exceeds 0.1 °C for CCc1cc(Nc2nccc(-c3c(-c4ccc(OC)c(C(=O)Nc5c(F)cccc5F)c4)nc4ccccn34)n2)c(OC)cc1N1CCC(N2CCN(S(C)(=O)=O)CC2)CC1
[out] f

[in] Determine whether measured thermal shift delta Tm meets or exceeds 0.1 °C for COc1ccc(Cl)c(Nc2nc3ccccc3nc2NS(=O)(=O)c2cccc(NC(=O)C(C)(C)N)c2)c1
[out] t
